Values from patent US20120058997A1

Test system: PC-3 Cells
test: Cell growth inhibition, Cell-Titer-Glo, 96 hours;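 also: luciferase luminescence reflecting cellular ATP, used as a proxy for cell number, with compound-treated cells compared against DMSO vehicle control wells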
Format: cell-based
experimentalParameters: Homo sapiens, read-out: IC50 PC-3 Cells (inhibit cell growth to 50% of untreated), Table VI
attributeMeasured: IC50 (µM)
Express the result in µM but write the number alone.

## Task I have this compound here, Cc1ccc(S(=O)(=O)Nc2ccc(Nc3ccn4ncc(-c5cccc(N(C)C)c5)c4n3)cc2)cc1 , and I need its recorded IC50.
## Result 12.8

## Task Next: CCC(CO)Nc1ccc2ncc(-c3ccc(N(C)C)cc3)n2n1 (centres unmarked)
## Result 29.2

## Task What would you report for Cc1ccc(S(=O)(=O)Nc2ccc(Nc3ccn4ncc(-c5cccc(N)c5)c4n3)cc2)cc1 ?
## Result 12

## Task Item: CCC(CO)Nc1ccc2ncc(-c3ccc(NS(C)(=O)=O)cc3)n2n1 (centres unmarked)
## Result 39

====

System: K562 Cells
test: Cell growth inhibition, Cell-Titer-Glo, 96 hours;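 also: luminescent ATP signal as an index of viable cell number, drug-treated versus cells given an equal volume of DMSO vehicle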
Assay type: cell-based
experimentalParameters: Homo sapiens, K562, Table IX (results), read-out: IC50 (K562)
Classify on IC50 using Low (below 6 µM), Mid (6 µM to below 10 µM), High (10 µM or more)

## Task Input Fc1cccc(-c2ccc3ncc(-c4cccc(F)c4)n3n2)c1 [Compound 7-9] ; output its category
## Result Mid

## Task Likewise for Fc1ccc(-c2ccc3ncc(-c4ccc(F)cc4)n3n2)cc1 [Compound 7-7] ?
## Result High

## Task Further, for COc1ccc(OC(F)(F)F)cc1-c1cnc2ccc(NCC3CCN(C(C)C)CC3)nn12 [Compound 7-48] ?
## Result Low

## Task Proceed to CCN1CCC(CNc2ccc3ncc(-c4cc(OC(F)(F)F)ccc4O)n3n2)CC1 [Compound 7-47]
## Result High

## Task Try this compound too: CC[C@@H](CO)Nc1ccc2ncc(-c3cccc(OC(F)(F)F)c3)n2n1 [Compound 7-32]
## Result High

## Task Then COc1ccc(OC(F)(F)F)cc1-c1cnc2ccc(NCCC3CCN(C)CC3)nn12 [Compound 7-44] ?
## Result Low

## Task Param item: CC(C)N1CCC(CNc2ccc3ncc(-c4cccc(OC(F)(F)F)c4)n3n2)CC1 [Compound 7-35]
## Result Low

## Task Lookup FC(F)(F)Oc1cccc(-c2cnc3ccc(NCCN4CCCC4)nn23)c1 [Compound 7-30]
## Result Mid

## Task Continue with O=C(C1CC1)N1CCC(CNc2ccc3ncc(-c4cccc(OC(F)(F)F)c4)n3n2)CC1 [Compound 7-36]
## Result Mid

## Task Record: CCN1CCC(CNc2ccc3ncc(-c4cccc(OC(F)(F)F)c4)n3n2)CC1 [Compound 7-39]
## Result Low

## Task Also need Fc1cccc(-c2cnc3ccc(NC4CCCC4)nn23)c1 [Compound 7-15] , thanks.
## Result High

## Task Record: COc1ccc(OC(F)(F)F)cc1-c1cnc2ccc(NCC3CCN(C)CC3)nn12 [Compound 7-42]
## Result Mid

## Task Field entry: CCN1CCC(CNc2ccc3ncc(-c4cc(OC(F)(F)F)ccc4OC)n3n2)CC1 [Compound 7-46]
## Result Low

## Task Would you mind doing FC(F)(F)Oc1cccc(-c2ccc3ncc(-c4cccc(OC(F)(F)F)c4)n3n2)c1 [Compound 7-13] as well?
## Result High

====

assayedSystem: Pim-1 kinase (Homo sapiens)
Sequence (P11309 whole entry): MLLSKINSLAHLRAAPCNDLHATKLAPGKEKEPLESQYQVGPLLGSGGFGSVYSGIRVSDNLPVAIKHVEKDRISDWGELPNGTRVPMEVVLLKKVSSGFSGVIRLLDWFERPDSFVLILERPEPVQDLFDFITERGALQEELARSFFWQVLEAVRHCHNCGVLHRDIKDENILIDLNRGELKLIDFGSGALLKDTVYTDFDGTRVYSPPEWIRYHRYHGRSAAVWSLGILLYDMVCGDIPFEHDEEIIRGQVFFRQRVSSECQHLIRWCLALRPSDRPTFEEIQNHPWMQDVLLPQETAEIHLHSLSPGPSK
test: Promega Kinase-Glo Pim-1 kinase inhibition assay;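 also: in vitro Pim-1 reaction run 2 h at 30 °C, then leftover ATP measured by luciferase luminescence, where signal falls as kinase activity rises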
Format: biochemical
experimentalParameters: Table VIII (results); values in nM; read-out: IC50(Kinase)
Task for the reader: assign each of the following compounds its reported log10 of IC50.
Note the log scale: values are log10 of IC50 expressed in nM.

## Task Bench note: what log10 of IC50 did CC(C)N1CCC(CNc2ccc3ncc(-c4cc(OC(F)(F)F)ccc4O)n3n2)CC1 show?
## Result 2.49

## Task Repeat for the following compound: Cc1cc2ncc(-c3cccc(OC(F)(F)F)c3)n2nc1NCC1CCN(C)CC1
## Result 1.11

## Task Do the same for CCN1CCC(CNc2ccc3ncc(-c4cc(OC(F)(F)F)ccc4O)n3n2)CC1 please
## Result 2.49

## Task And what about the compound O=C(C1CC1)N1CCC(CNc2ccc3ncc(-c4cccc(OC(F)(F)F)c4)n3n2)CC1 ?
## Result 1.86

## Task Moving on to Cc1cc2ncc(-c3cccc(OC(F)(F)F)c3)n2nc1OCC1CCN(C)CC1
## Result 2.43

## Task Same for CC[C@@H](CO)Nc1ccc2ncc(-c3cccc(OC(F)(F)F)c3)n2n1
## Result 1.98

## Task Thanks! And FC(F)(F)Oc1cccc(-c2cnc3ccc(NCCN4CCCC4)nn23)c1 ?
## Result 2.88

## Task And the next one, CC[C@@H](N)COc1ccc2ncc(-c3cccc(OC(F)(F)F)c3)n2n1 ?
## Result 2.68

## Task What would you report for CC[C@H](N)COc1ccc2ncc(-c3cccc(OC(F)(F)F)c3)n2n1 ?
## Result 2.47
